System: ICS
experimentNotes: qHTS profiling for inhibitors of Plasmodium falciparum proliferation (AID 504749); also: nearly all actives have a fitted effect of over 60% in size
conditions: P. falciparum in erythrocytes, SYBR Green DNA, 72 h; series mostly up to 28.7 µM
Inconclusive results are not listed. Calls of active or inactive are those of the source. Calls follow the shape of the dose curve; as a rule, active = well fitted inhibition curve with a large enough effect; inconclusive = small, poorly fitted or top-dose-only effect; inactive = flat fitted curve, though single readings scatter.
Reply using exactly one outcome from true (1) = active, false (0) = inactive

Use the examples below as a reference point.
// return assay outcome for Cc1cc(C(C#N)c2ccc(Cl)cc2)c(Cl)cc1NC(=O)c1cc(I)cc(I)c1O (configuration not stated) false (0)

# fetch the recorded call for O=C1NC(=O)[C@@]2(CCOc3ccc(F)cc32)N1 here false (0)

In this assay, the call recorded for O=C(CCCN1CCN(c2ccccn2)CC1)c1ccc(F)cc1 was what? false (0)

GET /call?item= CC12CCC(CC1)C(C)(C)O2 returns the recorded outcome of this test. false (0)

Per the records of this test, what outcome belongs to CCCCN1CCCC[C@H]1C(=O)Nc1c(C)cccc1C ? false (0)

Further cases:
Which result was noted for this molecule in the test: CN1CCN(C2Cc3ccccc3Sc3ccc(Cl)cc32)CC1 (configuration not stated) true (1)

Write down the call the test reported for this molecule. Item: Oc1cccc(O)c1 false (0)

----------
measurementTarget: Ubiquitin carboxyl-terminal hydrolase 1 (Homo sapiens)
experimentNotes: Inhibitors of USP1/UAF1: Pilot qHTS (AID 504865);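 also: rhodamine fluorescence freed from ubiquitin-rhodamine substrate followed over time; top concentration of the series differs between compounds; % is scaled to controls: 0 for no effect and ±100 for the full control effect; nearly all actives have a fitted effect of over 35% in size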
conditions: purified USP1/UAF1, Ub-rhodamine cleavage fluorescence; series mostly up to 114 µM
Source text: Deubiquitinating enzymes (DUBs) are a class of enzymes that can cleave isopeptide bond formed between the C-terminal carboxylate of ubiquitin and a lysine side-chain amino group on the target protein. Among them, ubiquitin specific proteases (USPs) constitute the largest DUB family. […]
Records with an inconclusive call do not appear. Active and inactive are the calls of the source. Calls come from the whole dose curve; as a rule, active = well fitted inhibition curve with a large enough effect; inconclusive = small, poorly fitted or top-dose-only effect; inactive = flat fitted curve, though single readings scatter.
Pick one and only one: active, inactive

Per the assay record, what outcome was assigned to NC(=O)c1ncn([C@@H]2O[C@H](CO)[C@@H](O)[C@H]2O)n1 ? inactive

Called result for O=c1cc(CO)occ1O inactive

---
What was the test verdict on CCCOC(=O)c1ccccc1 ? inactive

Would you mind telling me which call this test gave CC(C)NC[C@H](O)c1ccc(O)c(O)c1 ? inactive

What did this assay record as the result for CCn1cc(C(=O)O)c(=O)c2cnc(N3CCNCC3)nc21 ? inactive

----------
measurementTarget: Cytochrome P450 2C9 (Homo sapiens) (UniProt P11712)
Sequence (P11712 whole entry, looked up): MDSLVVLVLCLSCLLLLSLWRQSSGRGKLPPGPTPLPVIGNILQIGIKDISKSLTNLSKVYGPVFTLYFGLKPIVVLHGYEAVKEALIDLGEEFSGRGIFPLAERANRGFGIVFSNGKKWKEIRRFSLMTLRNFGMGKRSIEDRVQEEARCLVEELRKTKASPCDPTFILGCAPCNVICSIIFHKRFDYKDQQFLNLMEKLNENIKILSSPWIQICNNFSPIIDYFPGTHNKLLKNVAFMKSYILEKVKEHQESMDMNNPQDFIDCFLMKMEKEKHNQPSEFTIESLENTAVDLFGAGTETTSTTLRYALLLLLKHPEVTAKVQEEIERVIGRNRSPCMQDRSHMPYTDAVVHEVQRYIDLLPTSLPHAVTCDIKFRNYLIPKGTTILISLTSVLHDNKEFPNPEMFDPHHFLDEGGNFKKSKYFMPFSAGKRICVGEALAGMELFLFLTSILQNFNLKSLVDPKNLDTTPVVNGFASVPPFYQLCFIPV
experimentNotes: Cytochrome P450 family 2 subfamily C member 9 (CYP2C9) small molecule antagonists: luciferase biochemical (cell-free) qHTS assay (AID 1645842); also: % is scaled to controls: 0 for no effect and ±100 for the full control effect; nearly all actives have a fitted effect of over 55% in size
conditions: P450-Glo CYP2C9 enzyme assay, luciferin luminescence; series mostly up to 57.4 µM
Records with an inconclusive call do not appear. Active and inactive are the calls of the source. Calls follow the shape of the dose curve; as a rule, active = well fitted inhibition curve with a large enough effect in the repeat runs; inconclusive = weak or mixed curves; inactive = no such curve, though single readings can be large or run the other way.
Valid outcomes are listed here; reply with one: true = active, false = inactive

// below: answered molecules
Which outcome was entered for the molecule CCN(CC)C(=O)Nc1ccc(OCC(O)CNC(C)(C)C)c(C(C)=O)c1 (stereo not drawn) in this test? false

Assay outcome for CS(=O)(=O)c1ccc([C@@H](O)[C@@H](CF)NC(=O)C(Cl)Cl)cc1 : what was it? false

Could you check what this test reported for CCCCN1CCCC[C@H]1C(=O)Nc1c(C)cccc1C ? false

Next:
In this assay, the call recorded for CC(C(O)c1ccc(O)cc1)N1CCC(Cc2ccccc2)CC1 (stereo not drawn) was what? false

----------
measurementTarget: Protein phosphatase 1D (Homo sapiens) (UniProt O15297)
Sequence (O15297 whole entry, looked up): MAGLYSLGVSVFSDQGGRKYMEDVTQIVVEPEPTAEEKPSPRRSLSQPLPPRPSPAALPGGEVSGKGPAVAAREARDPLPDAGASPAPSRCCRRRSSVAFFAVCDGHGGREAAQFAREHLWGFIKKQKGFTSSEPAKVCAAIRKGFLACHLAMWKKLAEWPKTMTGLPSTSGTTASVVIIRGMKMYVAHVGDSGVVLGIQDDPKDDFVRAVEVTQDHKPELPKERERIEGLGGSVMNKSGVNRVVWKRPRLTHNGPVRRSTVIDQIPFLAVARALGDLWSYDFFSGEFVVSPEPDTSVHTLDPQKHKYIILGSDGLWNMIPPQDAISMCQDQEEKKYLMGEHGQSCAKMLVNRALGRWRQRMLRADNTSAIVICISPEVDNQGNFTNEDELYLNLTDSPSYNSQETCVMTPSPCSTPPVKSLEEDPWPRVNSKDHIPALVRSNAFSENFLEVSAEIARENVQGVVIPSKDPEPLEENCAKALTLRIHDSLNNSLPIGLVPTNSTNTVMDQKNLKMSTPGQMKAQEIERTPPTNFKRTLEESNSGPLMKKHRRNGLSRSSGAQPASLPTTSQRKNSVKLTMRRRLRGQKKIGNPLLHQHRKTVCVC
experimentNotes: RapidFire Mass Spectrometry qHTS Assay for Modulators of WT P53-Induced Phosphatase 1 (WIP1) (AID 1347424);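 also: amount of dephosphorylated VEPPL-S-QETFS peptide product formed by WIP1; plate controls were DMSO wells for no effect and GSK830371 inhibitor control at 10 µM for full effect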
conditions: WIP1 dephosphorylation of phosphopeptide, RapidFire MS; series mostly up to 63 µM
Records with an inconclusive call do not appear. The source made the active and inactive calls. Calls come from the whole dose curve; as a rule, active = well fitted inhibition curve with a large enough effect; inconclusive = small, poorly fitted or top-dose-only effect; inactive = no such curve, though single readings can be large or run the other way.
reportedMetric: activity change, negative = inhibition

Solved cases (5 shown):
Given the compound CN(C)CCC=C1c2ccccc2CCc2ccccc21 , what is its reported activity change, negative = inhibition? inactive

Item under review: CCCCCCCCCCCCCCCC(=O)NCCO . Reported activity change, negative = inhibition? inactive

Please look up its activity change, negative = inhibition: CC1=C(CC(=O)O)c2cc(F)ccc2/C1=C\c1ccc(S(C)=O)cc1 (configuration not stated) inactive

Item under review: CCCCOC(=O)c1ccc(O)cc1 . Reported activity change, negative = inhibition? inactive

I am curious: what activity change, negative = inhibition value has been reported for CCN(CC)CCNC(=O)c1cc(Cl)c(N)cc1OC ? inactive

Next:
Give its activity change, negative = inhibition value. Item: O=C1O[C@H](CO)[C@@H](O)[C@H](O)[C@H]1O inactive

activity change, negative = inhibition for CCCCN1CCCC[C@H]1C(=O)Nc1c(C)cccc1C ? inactive

----------
Tested on: ECU
experimentNotes: qHTS profiling for inhibitors of Plasmodium falciparum proliferation (AID 504749); also: nearly all actives have a fitted effect of over 60% in size
conditions: P. falciparum in erythrocytes, SYBR Green DNA, 72 h; series mostly up to 28.7 µM
Records with an inconclusive call do not appear. Active and inactive are the calls of the source. The call rests on the fitted dose curve; in most records, active means well fitted inhibition curve with a large enough effect; inconclusive means small, poorly fitted or top-dose-only effect; inactive means flat fitted curve, though single readings scatter.
Entry note: the call must match one of active, inactive

A selection of reference data follows.
Hey, what did the test say about CCCCN(CCCC)CC(O)c1cc(Cl)cc2c1-c1ccc(Cl)cc1/C2=C/c1ccc(Cl)cc1 (stereo unspecified) ? active

Short answer needed: outcome of this test for CCN(CC)CCNC(=O)c1c(C)[nH]c(/C=C2\C(=O)Nc3ccc(F)cc32)c1C ? active

// outcome(item) with item = CCn1cc(C(=O)O)c(=O)c2cnc(N3CCNCC3)nc21 inactive

***
Given CC(C)(C)C(=O)NCCCC(=O)O , state the outcome it received in this test. inactive

I'd appreciate the recorded outcome for COc1ccc2c(c1)C(=O)N(CCc1ccc(S(=O)(=O)NC(=O)NC3CCCCC3)cc1)C(=O)C2(C)C from this test. inactive

For this compound, state the assay outcome: O=Cc1ccccc1C=O inactive

----------
Overview of recorded activity change, negative = inhibition for various compounds
experimentNotes: AP1 Signaling Pathway (AID 357);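 also: ME-180 reporter cells stimulated with EGF at its EC50 level; % is scaled to controls: 0 for no effect and ±100 for the full control effect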
conditions: ME-180 (cervical carcinoma) AP-1-bla reporter, EGF-induced, beta-lactamase ratio, 5 h; at 17.2 µM (top of the series)
Records with an inconclusive call do not appear.
Answer format: numeric, % implied, no suffix.

See these solved cases before continuing.
# input compound: CC(=O)OCC(=O)[C@@]1(O)CC[C@H]2[C@@H]3CCC4=CC(=O)CC[C@]4(C)[C@H]3C(=O)C[C@@]21C ; wanted: its activity change, negative = inhibition 0.362

What measured activity change, negative = inhibition goes with COC(=O)C1=C(C)NC(C)=C(C(=O)OC)C1c1ccccc1[N+](=O)[O-] ? -27.7

Given the entry CC1(C)OC(=O)NC1=O , report its measured activity change, negative = inhibition. 5.67

Need activity change, negative = inhibition of CCCCN1CCCC[C@H]1C(=O)Nc1c(C)cccc1C , thanks. 0.542

Item C[C@]12CC[C@@H]3c4ccc(O)cc4CC[C@H]3[C@@H]1CCC2=O has what recorded activity change, negative = inhibition? -1.97

***
I'd like to know its activity change, negative = inhibition. The compound in question is Cc1cc(N)c2ccccc2[n+]1CCCCCCCCCC[n+]1c(C)cc(N)c2ccccc21 -20.8

State the recorded activity change, negative = inhibition for this entry: N=c1c[n+](N2CCOCC2)[n-]o1 18.9

State the recorded activity change, negative = inhibition for this entry: Cc1ncc([N+](=O)[O-])n1CC(O)CCl (stereo unspecified) 0.517

Quick one: activity change, negative = inhibition of CN(C)CCOC(C)(c1ccccc1)c1ccccn1 (stereo unspecified) ? 4.21

Which measured activity change, negative = inhibition value corresponds to Cc1cc2c(cc1S(N)(=O)=O)S(=O)(=O)CCC2 ? 4.34

Which activity change, negative = inhibition is reported for this compound? Nc1ccc(S(=O)(=O)Nc2ccc(Cl)nn2)cc1 7.06

----------
experimentNotes: qHTS of pediatric cancer cell lines to identify multiple opportunities for drug repurposing: Primary screen for SJ-GBM2 cells (AID 1347091);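 also: plate controls were DMSO neutral control for no effect and bortezomib for full effect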
conditions: SJ-GBM2 viability, CellTiter-Glo luminescence, 48 h; series mostly up to 46 µM
Records with an inconclusive call do not appear. Calls of active or inactive are those of the source. Calls come from the whole dose curve; as a rule, active = well fitted cell-killing curve with a large enough effect; inconclusive = small, poorly fitted or top-dose-only effect; inactive = no such curve, though single readings can be large or run the other way.
reportedMetric: outcome

Below: 5 molecules and their reported outcome.
Which value of outcome has been reported for CC1=C(/C=C/C(C)=C/C=C/C(C)=C/C(=O)O)C(C)(C)CCC1 in the records? inactive

Query (molecule): COc1cc(C)c(Cc2cnc(N)nc2N)cc1OC ; field requested: outcome inactive

So what's the measured outcome for this one? C=CCn1c(=O)n([C@@H]2O[C@H](CO)[C@@H](O)[C@H]2O)c2nc(N)[nH]c(=O)c21 inactive

Sample OCC(CO)N[C@H]1C[C@](O)(CO)[C@@H](O)[C@H](O)[C@H]1O — what was its outcome? inactive

Which outcome is reported for this molecule? CO/N=C(\C(=O)N[C@@H]1C(=O)N2C(C(=O)O)=C(CSc3nc(=O)c(O)nn3C)CS[C@H]12)c1csc(N)n1 inactive

Others:
So what's the measured outcome for this one? CC(C)C(=O)c1c(C(C)C)nn2ccccc12 inactive

Field request: outcome | item: COC(=O)[C@H]1[C@H]2C[C@@H]3c4[nH]c5cc(OC)ccc5c4CCN3C[C@H]2C[C@@H](OC(=O)COc2ccc(OC)cc2)[C@@H]1OC inactive

GET /values?readout=outcome&item= Nc1cc(=O)[nH]c(N)n1 inactive

Can you share its outcome? I mean this molecule: N[C@H](C(=O)O)c1ccc(O)cc1 inactive

Please give the measured outcome for this molecule: Oc1cccc(O)c1 inactive
